biological target: DPP9 (Homo sapiens (Human), UniProt Q86TI2); experiment: DPP9 enzyme inhibition, IC50 measurement (Ala-Pro-pNA release); format: biochemical; conditions: Table 3; selectivity index, DPP8 IC50 over DPP9 IC50
Sequence (Q86TI2 whole entry): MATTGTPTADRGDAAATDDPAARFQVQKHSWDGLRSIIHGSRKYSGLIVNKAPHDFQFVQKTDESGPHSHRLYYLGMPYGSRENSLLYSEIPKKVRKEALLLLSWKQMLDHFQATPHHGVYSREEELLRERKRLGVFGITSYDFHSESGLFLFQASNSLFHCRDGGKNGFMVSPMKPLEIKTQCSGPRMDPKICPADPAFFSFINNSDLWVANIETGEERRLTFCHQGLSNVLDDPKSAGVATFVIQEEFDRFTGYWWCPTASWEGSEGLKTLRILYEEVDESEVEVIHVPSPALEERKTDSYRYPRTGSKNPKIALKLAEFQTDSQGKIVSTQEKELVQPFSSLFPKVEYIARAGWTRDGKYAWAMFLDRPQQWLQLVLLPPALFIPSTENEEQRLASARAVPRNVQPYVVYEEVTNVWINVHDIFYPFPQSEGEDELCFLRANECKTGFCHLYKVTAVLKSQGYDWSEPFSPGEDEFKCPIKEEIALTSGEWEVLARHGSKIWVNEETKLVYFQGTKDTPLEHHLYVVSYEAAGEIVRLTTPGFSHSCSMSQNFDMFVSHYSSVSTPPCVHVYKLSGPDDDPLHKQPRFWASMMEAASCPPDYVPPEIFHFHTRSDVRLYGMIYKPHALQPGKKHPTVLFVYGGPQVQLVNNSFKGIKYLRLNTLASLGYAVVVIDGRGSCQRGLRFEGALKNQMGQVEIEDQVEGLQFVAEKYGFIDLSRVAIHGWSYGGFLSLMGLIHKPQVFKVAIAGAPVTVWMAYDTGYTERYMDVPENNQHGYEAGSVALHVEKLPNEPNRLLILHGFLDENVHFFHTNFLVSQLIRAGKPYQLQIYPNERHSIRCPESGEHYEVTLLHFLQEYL
Use 10 as the dividing line for SI DPP9/8, with the line itself on the y side and lower values as n.

>>> print(df.to_string())
                                   molecule  cat
0  O=C1CCC(N2C(=O)c3cccc(NCCOCCOCCOCCNC(=O)NC45CC6CC(CC(NCC(=O)N7Cc8ccc(F)cc8C7)(C6)C4)C5)c3C2=O)C(=O)N1 (stereo not drawn)    n
1  O=C(N[C@H]1CC[C@H](O)CC1)OC12CC3CC(CC(NCC(=O)N4Cc5ccccc5C4)(C3)C1)C2    y
2  O=C(O)CNC(=O)OC12CC3CC(CC(NCC(=O)N4Cc5ccc(F)cc5C4)(C3)C1)C2    y
3  O=C1CCC(N2C(=O)c3cccc(NCCOCCNC(=O)NC45CC6CC(CC(NCC(=O)N7Cc8ccc(F)cc8C7)(C6)C4)C5)c3C2=O)C(=O)N1 (stereo not drawn)    n
4  O=C(NCCCC[C@H](NC(=O)OC12CC3CC(CC(NCC(=O)N4Cc5ccccc5C4)(C3)C1)C2)C(=O)O)OCc1ccccc1    y
5  O=C(NC12CC3CC(CC(C3)C1)C2)NC12CC3CC(CC(NCC(=O)N4Cc5ccccc5C4)(C3)C1)C2    y
